Run Description: Stability indicating HPLC assay and related substances on storage (Example 3)
Type: physicochemical
Conditions: 3 months, 25° C./60% RH
// reported M6G Assay, As is basis for each item listed
Give a bare numeral; the unit % w/w is implied.

Record excerpt, results attached:
CN1CCC23c4c5ccc(O)c4OC2C(OC2OC(C(=O)O)C(O)C(O)C2O)C=CC3C1C5.O=P(O)(O)O (stereo not drawn) [Morphine-6-glucuronide phosphate] : 84.25
CN1CC[C@]23c4c5ccc(O)c4O[C@H]2[C@@H](O[C@@H]2O[C@H](C(=O)O)[C@@H](O)[C@H](O)[C@H]2O)C=C[C@H]3[C@H]1C5 [Morphine-6-glucuronide base, morphine-6-β-D-glucuronide] : 91.84

# evaluate next
Answer with the recorded M6G Assay, As is basis for the compound listed here: CN1CCC23c4c5ccc(O)c4OC2C(OC2OC(C(=O)O)C(O)C(O)C2O)C=CC3C1C5.CN1CCC23c4c5ccc(O)c4OC2C(OC2OC(C(=O)O)C(O)C(O)C2O)C=CC3C1C5.O=C(O)C=CC(=O)O (stereo not drawn) [Morphine-6-glucuronide fumarate] 81.20

====

Run Description: Water content by Karl Fisher analysis on storage (Example 3)
Format: physicochemical
Conditions: 3 months, 40° C./75% RH
# maps each entry to its Moisture
Hi! Could you send only the number? It should be in % w/w, unit omitted.

Some entries whose results are on file:
CN1CCC23c4c5ccc(O)c4OC2C(OC2OC(C(=O)O)C(O)C(O)C2O)C=CC3C1C5.CN1CCC23c4c5ccc(O)c4OC2C(OC2OC(C(=O)O)C(O)C(O)C2O)C=CC3C1C5.O=C(O)C=CC(=O)O (stereo not shown) [Morphine-6-glucuronide maleate] : 9.24
CN1CCC23c4c5ccc(O)c4OC2C(OC2OC(C(=O)O)C(O)C(O)C2O)C=CC3C1C5.O=P(O)(O)O (stereo not shown) [Morphine-6-glucuronide phosphate] : 11.88
CN1CC[C@]23c4c5ccc(O)c4O[C@H]2[C@@H](O[C@@H]2O[C@H](C(=O)O)[C@@H](O)[C@H](O)[C@H]2O)C=C[C@H]3[C@H]1C5 [Morphine-6-glucuronide base, morphine-6-β-D-glucuronide] : 9.85

Read off the recorded Moisture for CN1CCC23c4c5ccc(O)c4OC2C(OC2OC(C(=O)O)C(O)C(O)C2O)C=CC3C1C5.CN1CCC23c4c5ccc(O)c4OC2C(OC2OC(C(=O)O)C(O)C(O)C2O)C=CC3C1C5.O=S(=O)(O)O (stereo not shown) [Morphine-6-glucuronide sulphate] 8.31

Annotate the molecule CN1CC[C@]23c4c5ccc(O)c4O[C@H]2[C@@H](O[C@@H]2O[C@H](C(=O)O)[C@@H](O)[C@H](O)[C@H]2O)C=C[C@H]3[C@H]1C5.Cl [Morphine-6-glucuronide hydrochloride] with its measured Moisture. 9.02

Assign Moisture to the following record: Br.CN1CC[C@]23c4c5ccc(O)c4O[C@H]2[C@@H](O[C@@H]2O[C@H](C(=O)O)[C@@H](O)[C@H](O)[C@H]2O)C=C[C@H]3[C@H]1C5 [Morphine-6-glucuronide hydrobromide] 4.24

Give Moisture for the following molecule: CN1CCC23c4c5ccc(O)c4OC2C(OC2OC(C(=O)O)C(O)C(O)C2O)C=CC3C1C5.CN1CCC23c4c5ccc(O)c4OC2C(OC2OC(C(=O)O)C(O)C(O)C2O)C=CC3C1C5.O=C(O)C=CC(=O)O (stereo not shown) [Morphine-6-glucuronide fumarate] 10.89
